System Name: Protein deacetylase HDAC6 (Homo sapiens) (UniProt Q9UBN7)
Sequence (Q9UBN7 whole entry): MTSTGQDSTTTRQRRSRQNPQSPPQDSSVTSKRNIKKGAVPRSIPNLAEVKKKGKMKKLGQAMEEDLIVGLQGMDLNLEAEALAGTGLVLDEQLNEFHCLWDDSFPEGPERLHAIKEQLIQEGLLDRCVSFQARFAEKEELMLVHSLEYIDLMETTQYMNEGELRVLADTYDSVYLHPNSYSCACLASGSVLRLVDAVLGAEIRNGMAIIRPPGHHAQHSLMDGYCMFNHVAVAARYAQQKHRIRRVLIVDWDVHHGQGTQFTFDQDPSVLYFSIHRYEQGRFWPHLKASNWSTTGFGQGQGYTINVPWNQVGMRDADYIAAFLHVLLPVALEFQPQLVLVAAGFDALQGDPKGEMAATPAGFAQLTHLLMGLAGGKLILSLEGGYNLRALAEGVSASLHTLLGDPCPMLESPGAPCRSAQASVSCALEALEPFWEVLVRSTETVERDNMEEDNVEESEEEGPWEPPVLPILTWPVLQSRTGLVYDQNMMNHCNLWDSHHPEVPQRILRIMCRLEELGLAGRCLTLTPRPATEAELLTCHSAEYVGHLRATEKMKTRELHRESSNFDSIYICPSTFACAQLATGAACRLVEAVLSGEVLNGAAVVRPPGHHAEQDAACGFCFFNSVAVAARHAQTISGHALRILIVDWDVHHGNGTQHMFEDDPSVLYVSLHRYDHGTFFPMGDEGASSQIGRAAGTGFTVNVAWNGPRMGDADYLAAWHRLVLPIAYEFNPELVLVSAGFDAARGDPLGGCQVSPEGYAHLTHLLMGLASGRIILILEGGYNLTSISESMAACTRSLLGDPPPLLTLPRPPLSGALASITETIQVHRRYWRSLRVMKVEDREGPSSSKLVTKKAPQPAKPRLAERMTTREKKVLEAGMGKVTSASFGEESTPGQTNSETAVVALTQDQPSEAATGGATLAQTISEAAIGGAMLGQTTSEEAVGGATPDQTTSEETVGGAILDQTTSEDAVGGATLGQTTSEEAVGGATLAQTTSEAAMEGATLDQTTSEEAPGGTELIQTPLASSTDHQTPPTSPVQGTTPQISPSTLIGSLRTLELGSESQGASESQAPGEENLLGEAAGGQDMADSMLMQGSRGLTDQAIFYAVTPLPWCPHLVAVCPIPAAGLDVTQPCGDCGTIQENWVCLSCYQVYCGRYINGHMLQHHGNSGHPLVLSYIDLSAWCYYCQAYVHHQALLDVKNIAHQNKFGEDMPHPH
Details: at 10 µM
In all, about 5,600 compounds went through this assay and about 390 (7%) showed an effect of 50% or more. The sample as a whole holds a higher share of strong results than the screen did.
Please note: Yes applies when inhibition is 10% or greater, and No applies otherwise.

Would you please look over these solved cases?
{"Molecule": "C=C1/C(=C\\C=C2/CCC[C@]3(C)[C@@H]([C@H](C)/C=C/[C@H](C)C(C)(C)O)CC[C@@H]23)C[C@@H](O)C[C@@H]1O", "System Name": "Protein deacetylase HDAC6 (Homo sapiens) (UniProt Q9UBN7)", "Qualitative Label": "No"}
{"Molecule": "C[N+]1(CC2CC2)[C@@H]2C[C@@H](OC(=O)[C@H](CO)c3ccccc3)C[C@H]1[C@@H]1O[C@@H]12 (stereo partly drawn)", "System Name": "Protein deacetylase HDAC6 (Homo sapiens) (UniProt Q9UBN7)", "Qualitative Label": "No"}
{"Molecule": "CCOC(=O)[C@H](Cc1ccc([N+](=O)[O-])cc1)NC(=O)c1ccccc1", "System Name": "Protein deacetylase HDAC6 (Homo sapiens) (UniProt Q9UBN7)", "Qualitative Label": "Yes"}
{"Molecule": "CCC(=O)c1ccc(OCC(O)CN2CCN(c3ccccc3)CC2)cc1 (stereo not drawn)", "System Name": "Protein deacetylase HDAC6 (Homo sapiens) (UniProt Q9UBN7)", "Qualitative Label": "Yes"}
{"Molecule": "COc1cc(C(=O)c2c(C)oc3c(O)c(OC)ccc23)cc(OC)c1OC", "System Name": "Protein deacetylase HDAC6 (Homo sapiens) (UniProt Q9UBN7)", "Qualitative Label": "Yes"}

Hello, I need to know if "O=C(CNC(=O)c1ccc(Cl)cc1)NO" has measured inhibition not below 10%. Thanks!
Yes

Hello, I need to know if "COc1ccc(C(=O)Nc2c(Cl)cncc2Cl)cc1OC1CCCC1" has measured inhibition not below 10%. Thanks!
No

Hello, I need to know if "O=C(Nc1cc(-c2ccccc2)nn1-c1ccccc1)c1ccc([N+](=O)[O-])cc1" has measured inhibition not below 10%. Thanks!
Yes
